This collection of values is drawn from patent US20210369710A1.

Please respond with reported Dmax at 2 µM for every item in the list.
# Assayed system: MycN Protein (Homo sapiens)
# Construct: endogenous in cells; host or cells: HL-60 or SKNBE2
# Sequence (P04198 whole entry): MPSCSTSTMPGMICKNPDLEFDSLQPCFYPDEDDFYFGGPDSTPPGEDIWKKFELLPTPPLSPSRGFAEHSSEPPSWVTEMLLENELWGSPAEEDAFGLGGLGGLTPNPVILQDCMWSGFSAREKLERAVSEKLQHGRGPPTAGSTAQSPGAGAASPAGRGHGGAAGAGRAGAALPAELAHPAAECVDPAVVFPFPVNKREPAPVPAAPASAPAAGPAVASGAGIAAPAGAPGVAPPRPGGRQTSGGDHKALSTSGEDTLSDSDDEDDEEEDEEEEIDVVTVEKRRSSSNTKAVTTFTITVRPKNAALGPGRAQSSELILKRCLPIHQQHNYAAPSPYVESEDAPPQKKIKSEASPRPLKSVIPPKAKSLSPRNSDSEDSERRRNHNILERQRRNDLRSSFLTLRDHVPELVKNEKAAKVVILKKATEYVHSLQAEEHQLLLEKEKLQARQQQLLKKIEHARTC
# Assay details: Degradation of MycN protein, Western blot band density in cells
# Type: cell-based
# Condition: HL-60 or SKNBE2 cells; 6 uL of compound (1 mM) added to 3 mL cells; 6 hours; Western blot band density (ImageJ)

Exercise: Given the entry O=C(Nc1cccc(C(F)(F)F)c1)N[C@H]1C[C@H](Nc2nccc(Nc3cc(C4CCCC4)[nH]n3)n2)C1 , report its measured Dmax at 2 µM.
Solution: 20 to 49%

Exercise: Give the measured Dmax at 2 µM of O=C(NC1CCN(CCO)CC1)N[C@H]1CC[C@H](Nc2nccc(Nc3cc(C4CCCC4)[nH]n3)n2)CC1 .
Solution: < 20%

Exercise: So what's the measured Dmax at 2 µM for this one? CO[C@H]1c2ccccc2C[C@H]1NC(=O)N[C@H]1CC[C@H](Nc2nccc(Nc3cc(C)[nH]n3)n2)CC1
Solution: < 20%

Exercise: Report Dmax at 2 µM for O=C(NC1CCN(C2COC2)CC1)N[C@H]1CC[C@H](Nc2nccc(Nc3cc(C4CCCC4)[nH]n3)n2)CC1 please.
Solution: < 20%

Exercise: Given O=C(NC12CCN(CC1)CC2)N[C@H]1CC[C@H](Nc2nccc(Nc3cc(C4CCCC4)[nH]n3)n2)CC1 , state its recorded Dmax at 2 µM.
Solution: 20 to 49%

Exercise: # get_value(readout='Dmax at 2 µM', item= O=C(NC1CCN(Cc2ccccn2)CC1)N[C@H]1CC[C@H](Nc2nccc(Nc3cc(C4CCCC4)[nH]n3)n2)CC1 )
Solution: < 20%

Exercise: What value of Dmax at 2 µM has been reported for the following molecule? CC(NC(=O)N[C@H]1CC[C@H](Nc2nccc(Nc3cc(C4CCCC4)[nH]n3)n2)CC1)c1ccccn1 (stereo partly shown)
Solution: 20 to 49%

###

# Assayed system: MycN Protein (Homo sapiens)
# Construct: endogenous in cells; host or cells: HL-60 or SKNBE2
# Assay details: Degradation of MycN protein, Western blot band density in cells
# Type: cell-based
# Condition: HL-60 or SKNBE2 cells; 6 uL of compound (1 mM) added to 3 mL cells; 6 hours; Western blot band density (ImageJ)
Can you tell me Dmax at 2 µM for the items I'm about to list?

Exercise: Form field: reported Dmax at 2 µM of C/N=C(\Nc1cccc(C(F)(F)F)c1)N[C@H]1CC[C@H](Nc2nccc(Nc3cc(C)[nH]n3)n2)CC1
Solution: < 20%

Exercise: Reported Dmax at 2 µM, molecule CN(c1nccc(Nc2cc(C3CC3)[nH]n2)n1)[C@H]1CC[C@H](NC(=O)NC2Cc3ccc(C#N)cc3C2)CC1 (stereo partly shown) : ____
Solution: 80 to 100%

Exercise: Requested field: Dmax at 2 µM. Item: Cc1cc(Nc2ccnc(N[C@H]3CC[C@H](NC(=O)N[C@@H]4CCC[C@H](C(F)(F)F)C4)CC3)n2)n[nH]1
Solution: 20 to 49%

Exercise: If you can, please state the reported Dmax at 2 µM value of CC(=O)N1CCC(NC(=O)N[C@H]2CC[C@H](Nc3nccc(Nc4cc(C5CCCC5)[nH]n4)n3)CC2)CC1 .
Solution: 20 to 49%

Exercise: Data request, read-out Dmax at 2 µM, for COCCNC(=O)NC1CCC(Nc2nccc(Nc3cc(C4CCCC4)[nH]n3)n2)CC1 (stereo not shown)
Solution: 20 to 49%

Exercise: So what does the record say about Dmax at 2 µM for O=C(NC1Cc2ccncc2C1)N[C@H]1CC[C@H](Nc2nccc(Nc3cc(C4CCCC4)[nH]n3)n2)CC1 (stereo partly shown) ?
Solution: < 20%

Exercise: Given the molecule CN(c1nccc(Nc2cc(C3CC3)[nH]n2)n1)[C@H]1CC[C@H](NC(=O)Nc2cccc(C(F)(F)F)c2)CC1 , what is its reported Dmax at 2 µM?
Solution: 80 to 100%
